Data origin: patent US20240270821A1

# measured_target: hGLP-1R (Homo sapiens, UniProt P43220)
# Sequence (P43220 24-463): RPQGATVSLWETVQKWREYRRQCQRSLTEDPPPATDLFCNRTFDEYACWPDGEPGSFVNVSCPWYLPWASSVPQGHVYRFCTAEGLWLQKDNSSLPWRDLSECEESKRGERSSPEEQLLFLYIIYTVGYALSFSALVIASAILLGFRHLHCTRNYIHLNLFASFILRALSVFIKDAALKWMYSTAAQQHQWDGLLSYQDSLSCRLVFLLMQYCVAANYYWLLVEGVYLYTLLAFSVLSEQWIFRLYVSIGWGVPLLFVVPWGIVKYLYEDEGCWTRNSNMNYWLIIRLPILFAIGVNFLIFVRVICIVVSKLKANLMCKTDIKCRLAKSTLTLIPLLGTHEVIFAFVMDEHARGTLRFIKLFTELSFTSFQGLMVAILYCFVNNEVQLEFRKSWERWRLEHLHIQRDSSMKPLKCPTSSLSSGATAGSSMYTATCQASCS
# assay_comment: Functional cAMP activity in the presence of 1% HSA
# Type: cell-based
# test_parameters: read-out: cAMP Rel EC50, hGLP-1R
Starred links: 1 amine or outer side, 2 acyl side, 3 side chain; linkers in the order of their positions; H or OH if unused. Non-standard residues stand in square brackets, D forms with d. Groups on a side chain read outwards from the residue. No end group written: not given here. *: point of attachment. C20 diacid = O=C(O)CCCCCCCCCCCCCCCCCCC(=O)*; C18 diacid = O=C(O)CCCCCCCCCCCCCCCCC(=O)*; αMePhe(2-F) = C[C@](N)(Cc1ccccc1F)C(=O)O; γGlu = O=C(O)[C@H](CCC(=O)[*:2])N[*:1]; αMe4Pal = C[C@](N)(Cc1ccncc1)C(=O)O; αMeY = C[C@](N)(Cc1ccc(O)cc1)C(=O)O; 4Pal = N[C@@H](Cc1ccncc1)C(=O)O; αMeL = CC(C)C[C@](C)(N)C(=O)O; αMeS = C[C@](N)(CO)C(=O)O; Orn = NCCC[C@H](N)C(=O)O; Dab = NCC[C@H](N)C(=O)O; AEEA = NCCOCCOCC(=O)O; Aib = CC(C)(N)C(=O)O
Each record here notes measured pEC50.
The read-out pEC50 is expressed as -log10 of concentration in moles per litre.

Study these solved cases before continuing.
substance	pEC50
H-Y[Aib]QGTFTSDFSK[αMeL]LDKK([AEEA-γGlu-C20 diacid])AQ[Aib]AFIEYLLAGGPSSGEPPPSGG-NH2 [Example 6]	6.35
H-Y[Aib]QGT[αMePhe(2-F)]TSD[4Pal][αMeS]I[αMeL]LD[Orn]K([AEEA-γGlu-C18 diacid])AQ[αMe4Pal]EFI[dE][αMeY]LVEGGPSSGAPPPSGSE-NH2 [Example 751]	7.49
H-Y[Aib]QGTFTSDFSK[αMeL]LDKK([AEEA-γGlu-C20 diacid])AQ[Aib]AFIEYLLAGGPSSGEPPPGGS-NH2 [Example 9]	6.40

# lookup: pEC50 of H-Y[Aib]QGTFTSDFS[Dab][αMeL]LDKK([AEEA-γGlu-C18 diacid])AQ[Aib]AFIEYLLE[Aib]GPSSGAPPPSGS-NH2 [Example 133]
5.93

Can you share its pEC50? I mean this substance: Y[Aib]QGTFTSD[4Pal]SQ[αMeL]LDKK([dE-dE-γGlu-C18 diacid])AQ[αMe4Pal]AFIEYLIE[Aib]GPSSGAPPPSGSE-NH2 [Example 925]
6.15

Bench note: what pEC50 did H-Y[Aib]QGTFTSDFS[Orn][αMeL]LDKK([AEEA-AEEA-γGlu-C18 diacid])AQ[Aib]AFIEYLLE[dA]GPSSGHPPPSG[4Pal]-NH2 [Example 256] show?
6.63

----------
# measured_target: hGIPR (Homo sapiens, UniProt P48546)
# Sequence (P48546 22-466): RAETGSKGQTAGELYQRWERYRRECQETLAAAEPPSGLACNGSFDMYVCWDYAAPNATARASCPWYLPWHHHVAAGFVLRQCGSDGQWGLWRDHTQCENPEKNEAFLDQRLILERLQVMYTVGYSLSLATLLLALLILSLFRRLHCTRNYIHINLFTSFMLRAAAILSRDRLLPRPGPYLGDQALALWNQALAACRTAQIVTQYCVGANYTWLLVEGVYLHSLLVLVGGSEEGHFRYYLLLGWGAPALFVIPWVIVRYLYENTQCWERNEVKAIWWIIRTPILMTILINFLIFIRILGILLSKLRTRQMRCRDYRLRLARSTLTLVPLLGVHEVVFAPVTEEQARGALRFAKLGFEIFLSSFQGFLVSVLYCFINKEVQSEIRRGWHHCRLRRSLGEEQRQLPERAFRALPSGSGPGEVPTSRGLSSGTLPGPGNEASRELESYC
# assay_comment: Functional cAMP activity in the presence of 1% HSA
# Type: cell-based
# test_parameters: read-out: cAMP Rel EC50, hGIPR
Starred links: 1 amine or outer side, 2 acyl side, 3 side chain; linkers in the order of their positions; H or OH if unused. Non-standard residues stand in square brackets, D forms with d. Groups on a side chain read outwards from the residue. No end group written: not given here. *: point of attachment. C20 diacid = O=C(O)CCCCCCCCCCCCCCCCCCC(=O)*; C18 diacid = O=C(O)CCCCCCCCCCCCCCCCC(=O)*; αMePhe(2-F) = C[C@](N)(Cc1ccccc1F)C(=O)O; γGlu = O=C(O)[C@H](CCC(=O)[*:2])N[*:1]; αMe4Pal = C[C@](N)(Cc1ccncc1)C(=O)O; αMeY = C[C@](N)(Cc1ccc(O)cc1)C(=O)O; 4Pal = N[C@@H](Cc1ccncc1)C(=O)O; αMeL = CC(C)C[C@](C)(N)C(=O)O; Orn = NCCC[C@H](N)C(=O)O; AEEA = NCCOCCOCC(=O)O; Aib = CC(C)(N)C(=O)O
This section presents substances with their documented log10(EC50) values.
All values: log10 EC50 [nM].

Worked examples follow.
substance	reading
H-Y[Aib]QGTFTSDFS[Orn][αMeL]LDKK([AEEA-γGlu-C20 diacid])AQ[Aib]AFIEYLLAGGPSSGAPPPSGSE-NH2 [Example 84]	1.76
H-Y[Aib]QGTFTSD[4Pal]SQ[αMeL]LD[Orn]K([γGlu-γGlu-C18 diacid])AQ[αMe4Pal]QFIE[αMeY]LIEGGPSSGAPPPSGSEE-NH2 [Example 1046]	1.93
H-Y[Aib]QGTFTSD[4Pal]SQ[αMeL]LD[Orn]K([γGlu-γGlu-C18 diacid])AQ[αMe4Pal]AFIEYLIA[Aib]GPSSGEPPPSGSEE-NH2 [Example 1092]	0.89
H-Y[Aib]QGT[αMePhe(2-F)]TSD[4Pal]SI[αMeL]LD[Orn]K([AEEA-γGlu-C18 diacid])AQ[αMe4Pal]EFI[dE][αMeY]LQEGGPSSGAPPPSGS-NH2 [Example 643]	0.21

Would you kindly share the measured log10(EC50) for Y[Aib]QGTFTSD[4Pal]SK[αMeL]LDKK([AEEA-γGlu-C18 diacid])AQ[Aib]AFIEYLIE[Aib]GESSGEPPPSGE-NH2 [Example 281] ?
1.41
